Measured T/C, listed per entry.
# Test system: L1210 leukemia ip in BDF1 mice, survival T/C
# experiment-summary: NCI In Vivo Anticancer Drug Screen. Data for tumor model L1210 Leukemia (intraperitoneal) in B6D2F1 (BDF1) mice
# conditions-used: endpoint: mean survival time; dose: 400.0 mg/kg/injection; schedule: Q01DX001 (ip); vehicle: saline; higher = longer survival
Toxic doses and inconclusive results are not listed.

{"columns": ["compound", "T/C"],
 "data": [
  ["COc1ccc(C(=O)/C=C/c2ccccc2)c(O)c1", "98 % of control"],
  ["Cc1noc(/N=C/c2cccc(Cl)c2)c1C", "101 % of control"],
  ["Cc1ccc(S(=O)(=O)OC2CCCC3CC(=O)CCC32C)cc1 (stereo unspecified)", "98 % of control"],
  ["CCCCCCCCCCCCC[As](=O)(O)CCCCCCCCCCCCC", "91 % of control"],
  ["CC1(C)N=C(N)N=C(N)N1c1cccc(OCCCOc2ccc(NC(=O)/C=C\\C(=O)O)cc2)c1", "102 % of control"],
  ["O=C1CCN(C2CC(O)C(CO)C2)C(=O)N1 (stereo unspecified)", "101 % of control"]
]}

###

# Test system: L1210 leukemia ip in BDF1 mice, survival T/C
# experiment-summary: NCI In Vivo Anticancer Drug Screen. Data for tumor model L1210 Leukemia (intraperitoneal) in B6D2F1 (BDF1) mice
# conditions-used: endpoint: mean survival time; dose: 50.0 mg/kg/injection; schedule: Q01DX009 (ip); vehicle: Klucel (hydroxypropylcellulose) (HPC); higher = longer survival
Toxic doses and inconclusive results are not listed.
T/C reference
measure: T/C

{"columns": ["molecule", "measured-on", "value-measured"],
 "data": [
  ["COc1c(Cl)c(C(Cl)(Cl)Cl)nc2ccccc12", "L1210 leukemia ip in BDF1 mice, survival T/C", "101 % of control"],
  ["Oc1ccc(OCc2ccccc2)cc1", "L1210 leukemia ip in BDF1 mice, survival T/C", "88 % of control"],
  ["CC1(C)N=C(N)N=C(N)N1c1cccc(/C=C/c2cccc([N+](=O)[O-])c2)c1", "L1210 leukemia ip in BDF1 mice, survival T/C", "102 % of control"],
  ["O=C(CCNNC(=O)c1ccncc1)NCc1ccccc1", "L1210 leukemia ip in BDF1 mice, survival T/C", "110 % of control"],
  ["Cc1cc(C)nc(NC(=O)COc2ccc(Cl)cc2)c1", "L1210 leukemia ip in BDF1 mice, survival T/C", "97 % of control"],
  ["CCc1ccccc1NC(=O)Sc1cccc(C)c1", "L1210 leukemia ip in BDF1 mice, survival T/C", "96 % of control"],
  ["CCN(CC)CCCC#CCN1CCCCC1", "L1210 leukemia ip in BDF1 mice, survival T/C", "101 % of control"],
  ["CCOC(=O)c1ccc(=O)[nH]c1.[Ag]", "L1210 leukemia ip in BDF1 mice, survival T/C", "86 % of control"],
  ["NC(=O)NC1C(c2ccccc2)=NOC1C(N)=O (centres undefined)", "L1210 leukemia ip in BDF1 mice, survival T/C", "88 % of control"],
  ["COc1ccc(C(=O)OCCN(CCN(CCOC(=O)c2ccc(OC)cc2)C(=O)c2ccc(OC)cc2)C(=O)c2ccc(OC)cc2)cc1", "L1210 leukemia ip in BDF1 mice, survival T/C", "96 % of control"],
  ["CSc1ccc(N=Cc2ccc3c(c2)OCO3)cc1", "L1210 leukemia ip in BDF1 mice, survival T/C", "103 % of control"],
  ["COc1c([N+](=O)[O-])cc2c(c1C)OCOC2", "L1210 leukemia ip in BDF1 mice, survival T/C", "95 % of control"],
  ["C=CCOC1C=CC=CC=C1", "L1210 leukemia ip in BDF1 mice, survival T/C", "100 % of control"],
  ["CC1=CCCC(C)(C)C1C=C1C(=O)NC(=S)NC1=O (centres undefined)", "L1210 leukemia ip in BDF1 mice, survival T/C", "92 % of control"]
]}

###

# System: L1210 leukemia ip in BDF1 mice, survival T/C
# experiment-summary: NCI In Vivo Anticancer Drug Screen. Data for tumor model L1210 Leukemia (intraperitoneal) in B6D2F1 (BDF1) mice
# conditions-used: endpoint: mean survival time; dose: 100.0 mg/kg/injection; schedule: Q04DX002 (ip); vehicle: other; higher = longer survival
Inconclusive results and toxic doses are left out.
measure: T/C

{"columns": ["molecule", "measure", "value-measured"],
 "data": [
  ["NC1CC(C(=O)O)CCC1S (stereo not given)", "T/C", "91 % of control"],
  ["O=C(NC(=S)Nc1ccccn1)c1ccccc1", "T/C", "105 % of control"],
  ["CCCCCS(=O)(=O)N1CCCCCC1", "T/C", "112 % of control"],
  ["O=C1CCCCC1c1ccccc1 (stereo not given)", "T/C", "92 % of control"],
  ["O=C1CCCCCN1", "T/C", "98 % of control"]
]}

###

Items are presented alongside their recorded T/C.
# Test system: L1210 leukemia ip in BDF1 mice, survival T/C
# experiment-summary: NCI In Vivo Anticancer Drug Screen. Data for tumor model L1210 Leukemia (intraperitoneal) in B6D2F1 (BDF1) mice
# conditions-used: endpoint: mean survival time; dose: 400.0 mg/kg/injection; schedule: Q04DX002 (ip); vehicle: gum acacia; higher = longer survival
Inconclusive results and toxic doses are left out.

{"columns": ["compound", "T/C"],
 "data": [
  ["CCN(CC)C(=S)SC(=S)N(CC)CC", "89 % of control"],
  ["O=C(COc1ccc(Cl)cc1Cl)Nc1cc(Cl)ccc1Cl", "100 % of control"],
  ["O=C(Nc1ccc([N+](=O)[O-])cc1)C(c1ccccc1)c1ccccc1", "93 % of control"],
  ["CCCCCCCC(N)C(=O)O (centres undefined)", "88 % of control"]
]}

###

# Tested on: L1210 leukemia ip in BDF1 mice, survival T/C
# experiment-summary: NCI In Vivo Anticancer Drug Screen. Data for tumor model L1210 Leukemia (intraperitoneal) in B6D2F1 (BDF1) mice
# conditions-used: endpoint: mean survival time; dose: 200.0 mg/kg/injection; schedule: Q04DX003 (ip); vehicle: saline with Tween-80; higher = longer survival
Toxic doses and inconclusive results are not listed.
Parameter T/C: see the listing below.

{"columns": ["compound", "measured-on", "T/C"],
 "data": [
  ["O=C(O)c1c[nH]n2c(=S)ncnc12", "L1210 leukemia ip in BDF1 mice, survival T/C", "94 % of control"],
  ["Nc1ncc(Br)cc1Br", "L1210 leukemia ip in BDF1 mice, survival T/C", "95 % of control"],
  ["CCCC(O)(CC)CCC", "L1210 leukemia ip in BDF1 mice, survival T/C", "100 % of control"],
  ["COc1cc2c(c(OC)c1OC)-c1ccc(SC)c(=O)cc1C(N=Cc1ccccc1)CC2 (stereo not drawn)", "L1210 leukemia ip in BDF1 mice, survival T/C", "90 % of control"],
  ["COC(=O)NC1CC2C=CC1C1C=CC21 (stereo not drawn)", "L1210 leukemia ip in BDF1 mice, survival T/C", "91 % of control"],
  ["O=C(/C=C/c1ccc([N+](=O)[O-])cc1)c1ccc(Cl)cc1", "L1210 leukemia ip in BDF1 mice, survival T/C", "94 % of control"],
  ["O=C(/C=C/c1ccc(Cl)cc1Cl)c1ccc(Cl)cc1", "L1210 leukemia ip in BDF1 mice, survival T/C", "93 % of control"],
  ["CNC(=O)Nc1ccccc1", "L1210 leukemia ip in BDF1 mice, survival T/C", "90 % of control"],
  ["C(=N\\n1cnnc1)/c1ccccc1/C=N/n1cnnc1", "L1210 leukemia ip in BDF1 mice, survival T/C", "100 % of control"],
  ["OC1CCC2CCC(O)CC2C1 (stereo not drawn)", "L1210 leukemia ip in BDF1 mice, survival T/C", "105 % of control"],
  ["CCCOC(c1ccc2c(c1)OCO2)C(C)Br (stereo not drawn)", "L1210 leukemia ip in BDF1 mice, survival T/C", "94 % of control"],
  ["O=[N+]([O-])c1ccc2c(c1[N+](=O)[O-])CCCC2", "L1210 leukemia ip in BDF1 mice, survival T/C", "93 % of control"],
  ["COc1cc([N+](=O)[O-])ccc1NC(=O)N(C1CCCCC1)C1CCCCC1", "L1210 leukemia ip in BDF1 mice, survival T/C", "106 % of control"]
]}

###

# System: L1210 leukemia ip in BDF1 mice, survival T/C
# experiment-summary: NCI In Vivo Anticancer Drug Screen. Data for tumor model L1210 Leukemia (intraperitoneal) in B6D2F1 (BDF1) mice
# conditions-used: endpoint: mean survival time; dose: 400.0 mg/kg/injection; schedule: Q01DX001 (ip); vehicle: carboxymethylcellulose (CMC); higher = longer survival
Toxic doses and inconclusive results are not listed.

{"columns": ["compound", "T/C"],
 "data": [
  ["NC(Cc1cccs1)C(=O)O (configuration not stated)", "101 % of control"],
  ["COC(=O)C1(CCOC(C)=O)CCCCC12OCCO2 (configuration not stated)", "91 % of control"],
  ["O=c1oc2c([N+](=O)[O-])cc([N+](=O)[O-])cc2c2ccccc12", "92 % of control"],
  ["CCCCC(=O)N1CC(C)OC(C)C1 (configuration not stated)", "106 % of control"],
  ["O=C1NC(=O)N(Cc2ccccc2)C(=O)C1Cc1ccccc1 (configuration not stated)", "103 % of control"],
  ["CCCCC(CCCC(=O)O)C(=O)O (configuration not stated)", "98 % of control"],
  ["Oc1ccc(N=C/C=C/c2ccccc2)cc1", "91 % of control"]
]}
